Molecular target: Myc-GyrB-FGFR fusion protein (Homo sapiens)
Sequence (P11362 478-767 limits assumed): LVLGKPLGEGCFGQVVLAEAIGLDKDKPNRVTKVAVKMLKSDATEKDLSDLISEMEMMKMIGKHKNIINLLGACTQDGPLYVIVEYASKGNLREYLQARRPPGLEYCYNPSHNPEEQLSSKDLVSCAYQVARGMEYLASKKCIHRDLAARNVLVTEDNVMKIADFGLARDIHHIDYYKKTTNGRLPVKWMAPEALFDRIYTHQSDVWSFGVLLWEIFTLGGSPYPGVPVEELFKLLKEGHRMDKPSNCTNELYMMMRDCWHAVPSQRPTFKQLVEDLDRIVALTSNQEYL
Assay: Biochemical FGFR assay (ELISA)
Settings: read-out: bio fgfR1 IC50
parameter.measured: IC50 (µM)

compound | IC50, µM
CN(C)S(=O)(=O)c1ccc2c(c1)/C(=C/c1ccc3[nH]ccc3c1)C(=O)N2 [Example 183] | 7.68

(P) Cc1cc(CCC(=O)O)c(/C=C2\C(=O)Nc3cc(-c4ccc(F)cc4)ccc32)[nH]1 [Example 107]
(Q) CCOc1cccc(-c2ccc3c(c2)NC(=O)/C3=C\c2[nH]cc(C)c2CCC(=O)O)c1 [Example 224]
(R) Cc1ccc2c(c1)/C(=C/c1[nH]c3c(c1CCC(=O)O)CCCC3)C(=O)N2 [Example 194]
Query: List these items ordered by IC50, big to small. I would appreciate it if you listed the labels in the requested order.
Result: P, Q, R

====

Target: chimeric receptor containing the EGFR extracellular domain and intracellular HER2 kinase domain (Homo sapiens, UniProt P04626)
Construct: fused on or other part: EGFR ectodomain + HER2 intracellular part, ATP-site indolinones: HER2's kinase
Sequence (P04626 720-1255 limits assumed, change not shown): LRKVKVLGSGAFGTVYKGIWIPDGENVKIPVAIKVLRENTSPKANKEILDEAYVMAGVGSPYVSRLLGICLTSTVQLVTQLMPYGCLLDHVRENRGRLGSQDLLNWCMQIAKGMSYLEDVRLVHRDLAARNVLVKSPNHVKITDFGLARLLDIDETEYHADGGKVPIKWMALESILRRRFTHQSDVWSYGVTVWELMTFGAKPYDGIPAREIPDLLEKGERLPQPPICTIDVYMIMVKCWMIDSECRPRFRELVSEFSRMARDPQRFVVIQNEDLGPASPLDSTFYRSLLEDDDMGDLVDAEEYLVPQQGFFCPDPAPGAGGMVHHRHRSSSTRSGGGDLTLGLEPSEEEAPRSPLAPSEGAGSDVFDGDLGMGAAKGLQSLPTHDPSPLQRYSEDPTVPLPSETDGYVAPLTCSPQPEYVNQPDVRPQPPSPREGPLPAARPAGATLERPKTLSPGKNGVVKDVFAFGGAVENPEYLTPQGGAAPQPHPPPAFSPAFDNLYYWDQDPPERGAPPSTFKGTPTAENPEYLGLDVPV
Experiment: EGF Receptor-HER2 chimeric receptor assay in whole cells (ELISA)
Conditions: read-out: HER-2 kinase IC50
parameter.measured: IC50 (µM)

Reference set, count: 3
compound | data.value
COc1ccc(/C=C2/C(=O)Nc3ccc(Cl)cc32)cc1C1CCCCC1 [Example 51] | 71.8
COc1ccc(/C=C2/C(=O)Nc3ccc(F)cc32)cc1C1CCCCC1 [Example 43] | 52.9
COc1c(C)cc(/C=C2/C(=O)Nc3ccc(Cl)cc32)cc1C [Example 21] | 11.8

(P) COc1ccc(/C=C2\C(=O)Nc3cccc(C)c32)cc1C1CCCC1 [Example 48]
(Q) Cc1cccc2c1/C(=C/c1ccc3c(c1)CCC(C)(C)O3)C(=O)N2 [Example 41]
Query: Min IC50? P | Q Write down the label attached to your selection.
Result: Q
(Q: 39.8 µM, P: 65 µM)

(a) CCc1ccc2c(c1)/C(=C\c1cc(C(C)C)c(OC)c(C(C)C)c1)C(=O)N2 [Example 28]
(b) CC(=O)Nc1ccc2c(c1)NC(=O)/C2=C/c1ccc(OCCN2CCOCC2)c(-c2cccs2)c1 [Example 40]
Query: Hi! Which is lower in terms of IC50, the first one a or the second one b ? Mark your selection by writing its label.
Result: a

(1) COc1ccc(/C=C2/C(=O)Nc3ccc(F)cc32)cc1-c1ccccc1 [Example 37]
(2) COc1c(C(C)C)cc(/C=C2/C(=O)Nc3ccccc32)cc1C(C)C [Example 1]
Query: Which entry has a larger number for IC50, 1 or 2 ? Kindly state the label of the option you pick.
Result: 1
(1: 22.5 µM, 2: 13.8 µM)

====

Target: EGFR (Homo sapiens)
Sequence (P00533 25-1210): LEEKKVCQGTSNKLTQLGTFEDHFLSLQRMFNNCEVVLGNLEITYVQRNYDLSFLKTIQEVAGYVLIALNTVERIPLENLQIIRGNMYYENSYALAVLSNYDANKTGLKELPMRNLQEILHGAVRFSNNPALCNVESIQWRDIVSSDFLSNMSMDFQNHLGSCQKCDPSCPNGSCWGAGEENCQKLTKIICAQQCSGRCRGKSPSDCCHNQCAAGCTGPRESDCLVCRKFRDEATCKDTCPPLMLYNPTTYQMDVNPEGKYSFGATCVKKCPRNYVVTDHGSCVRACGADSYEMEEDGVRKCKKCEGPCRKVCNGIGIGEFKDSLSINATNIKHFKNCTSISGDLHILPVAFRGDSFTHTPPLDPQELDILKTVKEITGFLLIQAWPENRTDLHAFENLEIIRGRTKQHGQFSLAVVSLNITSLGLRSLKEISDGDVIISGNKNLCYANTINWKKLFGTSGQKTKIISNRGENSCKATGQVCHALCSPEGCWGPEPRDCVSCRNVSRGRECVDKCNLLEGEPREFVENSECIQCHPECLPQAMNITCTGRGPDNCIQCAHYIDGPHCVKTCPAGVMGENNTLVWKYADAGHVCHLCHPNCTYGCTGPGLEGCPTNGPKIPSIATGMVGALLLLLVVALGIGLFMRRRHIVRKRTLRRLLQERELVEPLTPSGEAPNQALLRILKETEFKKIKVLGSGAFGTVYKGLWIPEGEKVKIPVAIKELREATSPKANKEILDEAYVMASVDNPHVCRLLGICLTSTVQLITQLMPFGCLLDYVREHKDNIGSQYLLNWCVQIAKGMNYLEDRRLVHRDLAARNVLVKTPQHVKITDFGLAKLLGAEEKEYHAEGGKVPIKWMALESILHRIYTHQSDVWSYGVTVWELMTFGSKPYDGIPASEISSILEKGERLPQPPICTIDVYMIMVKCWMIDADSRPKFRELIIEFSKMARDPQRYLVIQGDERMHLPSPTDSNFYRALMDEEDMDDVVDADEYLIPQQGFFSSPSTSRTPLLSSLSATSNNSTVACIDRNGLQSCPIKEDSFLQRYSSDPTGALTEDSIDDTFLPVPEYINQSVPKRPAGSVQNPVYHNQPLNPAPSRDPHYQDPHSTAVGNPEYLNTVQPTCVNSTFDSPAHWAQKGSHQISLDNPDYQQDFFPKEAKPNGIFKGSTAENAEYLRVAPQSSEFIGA
Assay: Biochemical EGFR assay (ELISA, A431 cell lysate)
Set-up: A431 cell lysate (Screening Lab, SUGEN, Inc.); host or cells: A431
Details: read-out: bio EGFr IC50
pIC50: −log10 of the molar value.
parameter.measured: pIC50

Consider the following illustrative entries.
compound | target.or.system | pIC50
COc1c(C)cc(/C=C2/C(=O)Nc3ccc(Cl)cc32)cc1C [Example 21] | EGFR (Homo sapiens) | < 4.00
COc1ccc(/C=C2/C(=O)Nc3ccc(Br)cc32)cc1-c1ccccc1 [Example 13] | EGFR (Homo sapiens) | < 4.00
CCOc1cccc(-c2cc(OC)c(OC)cc2/C=C2/C(=O)Nc3ccccc32)c1 [Example 58] | EGFR (Homo sapiens) | < 4.00

Query: State the recorded pIC50 for this entry: CCOC(=O)c1[nH]c(/C=C2\C(=O)Nc3cccc(C)c32)c(CCC(=O)O)c1C [Example 139]
Result: < 4.00

Query: // returns reported pIC50 for input COc1ccc(/C=C2/C(=O)Nc3ccccc32)cc1C1CCCC1 [Example 10]
Result: < 4.00

Query: Fill blank: measured pIC50 of the compound O=C1Nc2ccccc2/C1=C\c1ccc2c(c1)CCO2 [Example 66] is ____.
Result: < 4.00

Query: Could you tell me which pIC50 is on file for O=C1Nc2ccc(C(=O)O)cc2/C1=C/c1c[nH]c2ccccc12 [Example 174] ?
Result: < 4.00

Query: // returns reported pIC50 for input CN(C)C(=O)CCc1c(/C=C2\C(=O)Nc3ccccc32)[nH]c2c1CCCC2 [Example 197]
Result: < 4.00

Query: Recorded pIC50 for COc1ccc(/C=C2/C(=O)Nc3cc(NC(C)=O)ccc32)cc1-c1ccsc1 [Example 18] , please?
Result: < 4.00

Query: Item O=C(O)CCc1c(/C=C2\C(=O)Nc3cc(Cl)ccc32)[nH]c2c1CCCC2 [Example 195] has what recorded pIC50?
Result: 4.44

Query: Bench note: what pIC50 did COc1ccc(/C=C2\C(=O)Nc3cccc(C)c32)cc1C(C)C [Example 38] show?
Result: < 4.00

Query: Consider the compound CC(C)c1cc(/C=C2/C(=O)Nc3ccc(Cl)cc32)cc(C(C)C)c1OCCN1CCOCC1 [Example 24] and give its measured pIC50.
Result: < 4.00
